biological target: UniProt P14618; experiment: PKM2 activation biochemical assay (AC50 / max. response vs fructose 1,6-bisphosphate); details: % maximum response in a biochemical assay as compared with Fructose 1,6-bisphosphate
assay.metric: Max. Resp. (%)
Express it in %; write the number only.

Task item: Fill in reported Max. Resp. (%) for this entry: O=C(CCSC(=S)NCc1cccnc1)c1ccc(C(F)(F)F)cc1 [PMA17]
Reply: 23

Task item: Fill in reported Max. Resp. (%) for this entry: O=C(CCSC(=S)NCc1cccnc1)c1ccccc1 [PMA8]
Reply: 24

Task item: Fill in reported Max. Resp. (%) for this entry: CCOCCN(Cc1ccccc1F)C(=O)c1cc(C(F)(F)F)n[nH]1 [Compound 30]
Reply: 72

Task item: Fill in reported Max. Resp. (%) for this entry: CCN(CC)CCN(Cc1ccccc1Cl)C(=O)c1cc(C(F)(F)F)n[nH]1 [Compound 159]
Reply: 100

Task item: Fill in reported Max. Resp. (%) for this entry: CCN(CC)CCN(Cc1ccc(O)cc1F)C(=O)c1cc(C(F)(F)F)n[nH]1 [Compound 143]
Reply: 100

Task item: Fill in reported Max. Resp. (%) for this entry: O=C(c1cc(C(F)(F)F)n[nH]1)N(CCC1CCS(=O)(=O)CC1)Cc1ccc(O)cc1F [Compound 87]
Reply: 100

Task item: Fill in reported Max. Resp. (%) for this entry: Nc1cccc(Cl)c1CN(CCN1CCCC(F)C1)C(=O)c1cc(C(F)(F)F)n[nH]1 (stereo not drawn) [Compound 236]
Reply: 73

Task item: Fill in reported Max. Resp. (%) for this entry: CCN(CC)CCN(Cc1cccc2[nH]ccc12)C(=O)c1cc(C(F)(F)F)n[nH]1 [Compound 161]
Reply: 100

Task item: Fill in reported Max. Resp. (%) for this entry: O=C(CCSC(=S)NCc1cccnc1)c1ccc(O)cc1 [PMA11]
Reply: 76

Task item: Fill in reported Max. Resp. (%) for this entry: O=C(c1cc(C(F)(F)F)n[nH]1)N(CCN1CCCCCC1)Cc1c(F)cccc1F [Compound 198]
Reply: 100

Task item: Fill in reported Max. Resp. (%) for this entry: CCO[C@H]1CC[C@H](N(Cc2ccccc2F)C(=O)c2cc(C(F)(F)F)n[nH]2)CC1 [Compound 55]
Reply: 101

Task item: Fill in reported Max. Resp. (%) for this entry: CCOCCCN(Cc1ccccc1Cl)C(=O)c1cc(C(F)(F)F)n[nH]1 [Compound 38]
Reply: 47

---

biological target: UniProtKB P14618; test: PKM2 activation biochemical assay (AC50 / max. response vs fructose 1,6-bisphosphate); conditions: % maximum response in a biochemical assay as compared with Fructose 1,6-bisphosphate
For each entry below, report its Max. Resp. (%) value.
Express it in %; write the number only.

Task item: Fill in reported Max. Resp. (%) for this entry: O=C(c1cc(C(F)(F)F)n[nH]1)N(Cc1ccccc1F)CC1CCS(=O)(=O)CC1
Reply: 71

Task item: Fill in reported Max. Resp. (%) for this entry: CN(C)CCN(Cc1ccccc1Cl)C(=O)c1cc(C(F)(F)F)n[nH]1
Reply: 100

Task item: Fill in reported Max. Resp. (%) for this entry: O=C(c1cc(Br)n[nH]1)N(Cc1cccc2[nH]c(=O)sc12)CC1CCC1
Reply: 127
